Values compiled from ChEMBL document CHEMBL5385930.

- Tested on: Acinetobacter baumannii
- assay.text: Antibacterial activity against multidrug resistant Acinetobacter baumannii AB5075 assessed as reduction in bacterial growth by microbroth dilution assay
- Format: functional
measurement.name: MIC

molecule: CCC(C)CCC(=O)N[C@H](CC(N)=O)C(=O)N[C@H](Cc1ccccc1)C(=O)N[C@H](Cc1c[nH]c2ccccc12)C(=O)N[C@H](CCCN)C(=O)N[C@@H](CCCN)C(=O)NCC(=O)N[C@H](CCCN)C(=O)N[C@@H](Cc1c[nH]c2ccccc12)C(=O)N[C@@H]1C(=O)N[C@@H]([C@@H](C)CC)C(=O)NCC(=O)N[C@@H](CO)C(=O)O[C@@H]1C (stereo partly drawn)
subject.of.test: Acinetobacter baumannii
measurement.name: MIC
test.value: 16 µg/mL

Hi, could you look up MIC for each item in my list?
1. CCC(C)CCC(=O)N[C@H](CC(N)=O)C(=O)N[C@H](CCCCN)C(=O)N[C@H](Cc1c[nH]c2ccccc12)C(=O)N[C@H](CCCN)C(=O)N[C@@H](CCCN)C(=O)NCC(=O)N[C@H](CCCN)C(=O)N[C@@H](Cc1c[nH]c2ccccc12)C(=O)N[C@@H]1C(=O)N[C@@H]([C@@H](C)CC)C(=O)NCC(=O)N[C@@H](CO)C(=O)O[C@@H]1C (stereo partly drawn)
2. CCC(C)CCC(=O)N[C@H](CC(N)=O)C(=O)N[C@H](Cc1c[nH]cn1)C(=O)N[C@H](Cc1c[nH]c2ccccc12)C(=O)N[C@H](CCCN)C(=O)N[C@@H](CCCN)C(=O)NCC(=O)N[C@H](CCCN)C(=O)N[C@@H](Cc1c[nH]c2ccccc12)C(=O)N[C@@H]1C(=O)N[C@@H]([C@@H](C)CC)C(=O)NCC(=O)N[C@@H](CO)C(=O)O[C@@H]1C (stereo partly drawn)

1: > 32 µg/mL; 2: > 32 µg/mL
